# System: SK-N-SH human neuroblastoma cells
# Assay protocol: Serum Deprivation/JC-1 Mitochondrial Membrane Potential (MMP) Assay
# Type: cell-based
# Condition parameters: Homo sapiens, SK-N-SH, 18 h, serum deprivation ~18 hours, JC-1 ratio normalized to peak value for 10 μM dimebolin, single curve fit to mean data of n=2-3
# From the text: The method also involves a high-throughput assay using serum-deprivation conditions involving neuronal cells to screen for compounds that increase or preserve mitochondrial membrane potential. Such compounds can be found to aid in rescuing cells from energy-depletion that occurs in several neurodegenerative states. […]
Outcome measure: pEC50
As a rule, pEC50 stands for the negative log10 of the concentration, concentration in M.

Consider the reported pEC50 for these compounds:
c1ccc(CN2CCN3c4ccccc4CN(Cc4ccnc5ccccc45)CC3C2)cc1 (centres unmarked)
5.98
Cc1ccc(CN2Cc3ccccc3N3CCN(Cc4ccccc4)CC3C2)cc1 (centres unmarked)
5.48
Fc1cc(F)cc(CN2Cc3ccccc3N3CCN(Cc4ccccc4)CC3C2)c1 (centres unmarked)
5.32
Brc1ccccc1CN1Cc2ccccc2N2CCN(Cc3ccccc3)CC2C1 (centres unmarked)
5.48

From here, focus on the item given below.
Ask: Look up and report pEC50, with SK-N-SH human neuroblastoma cells as system, for COc1ccccc1CN1Cc2ccccc2N2CCN(Cc3ccccc3)CC2C1 (centres unmarked)
Result: 5.44

###

Overview of reported Emax across a group of compounds:
# System: SK-N-SH human neuroblastoma cells
# Assay protocol: Serum Deprivation/JC-1 Mitochondrial Membrane Potential (MMP) Assay
# Type: cell-based
# Condition parameters: Homo sapiens, SK-N-SH, percent maximal intensity in JC-1 ratio normalized to peak value for 10 μM dimebolin, serum deprivation, read-out: JC-1 max %
# From the text: The method also involves a high-throughput assay using serum-deprivation conditions involving neuronal cells to screen for compounds that increase or preserve mitochondrial membrane potential. Such compounds can be found to aid in rescuing cells from energy-depletion that occurs in several neurodegenerative states. […]
Give just the number in %; leave the unit off.

Ask: Look up and report Emax, with SK-N-SH human neuroblastoma cells as system, for Brc1ccc(CN2CCC3CN(Cc4ccccc4)CCN3c3ccccc32)cc1 (stereo not drawn) [Example 47]
Result: 273

Ask: Look up and report Emax, with SK-N-SH human neuroblastoma cells as system, for CC(C)(C)OC(=O)N1CCN2c3ccccc3CN(Cc3ccc(Br)cc3)CC2C1 (stereo not drawn) [Example 66]
Result: 192

Ask: Look up and report Emax, with SK-N-SH human neuroblastoma cells as system, for c1ccc(CN2CCN3c4ccccc4NCCC3C2)cc1 (stereo not drawn) [Example 26]
Result: 210

Ask: Look up and report Emax, with SK-N-SH human neuroblastoma cells as system, for Fc1ccc(CN2CCN3c4ncccc4N(C[C@@H]4CCN4)CCC3C2)cc1 (stereo partly drawn) [Example 68]
Result: 157

Ask: Look up and report Emax, with SK-N-SH human neuroblastoma cells as system, for c1ccc(CN2CCN3c4ccccc4CN(CC4CCCCC4)CC3C2)cc1 (stereo not drawn) [Example 144]
Result: 132

Ask: Look up and report Emax, with SK-N-SH human neuroblastoma cells as system, for O=C([C@@H]1C[C@H]1c1ccccc1)N1Cc2ccccc2N2CCN(Cc3ccccc3)CC2C1 (relative stereo) [Example 15]
Result: 225

Ask: Look up and report Emax, with SK-N-SH human neuroblastoma cells as system, for O=C(c1cccnc1)N1CCN2c3ncccc3N(CC3CC3)CCC2C1 (stereo not drawn) [Example 74]
Result: 109

Ask: Look up and report Emax, with SK-N-SH human neuroblastoma cells as system, for O=C(c1ccc[nH]1)N1Cc2ccccc2N2CCN(Cc3ccccc3)CC2C1 (stereo not drawn) [Example 93]
Result: 185

Ask: Look up and report Emax, with SK-N-SH human neuroblastoma cells as system, for Clc1ccc(CN2Cc3ccccc3N3CCN(Cc4ccccc4)CC3C2)cn1 (stereo not drawn) [Example 34]
Result: 213

Ask: Look up and report Emax, with SK-N-SH human neuroblastoma cells as system, for c1ccc(CN2CCN3c4ccccc4CN(Cc4cccnc4)CC3C2)cc1 (stereo not drawn) [Example 28]
Result: 88

Ask: Look up and report Emax, with SK-N-SH human neuroblastoma cells as system, for O=C(C1CC1)N1CCC2CNCCN2c2ncccc21 (stereo not drawn) [Example 72]
Result: 98

Ask: Look up and report Emax, with SK-N-SH human neuroblastoma cells as system, for Cc1ccc(CN2Cc3ccccc3N3CCN(Cc4ccccc4)CC3C2)cn1 (stereo not drawn) [Example 32]
Result: 140

Ask: Look up and report Emax, with SK-N-SH human neuroblastoma cells as system, for CC(C)(C)OC(=O)N1CCN2c3ccccc3CN(Cc3ccc(Br)cc3)C(=O)C2C1 (stereo not drawn) [Example 67]
Result: 215

Ask: Look up and report Emax, with SK-N-SH human neuroblastoma cells as system, for O=C(C1CC1)N1Cc2ccccc2N2CCN(Cc3ccccc3)CC2C1 (stereo not drawn) [Example 112]
Result: 139

Ask: Look up and report Emax, with SK-N-SH human neuroblastoma cells as system, for N#Cc1ccc(CN2Cc3ccccc3N3CCN(Cc4ccccc4)CC3C2)cc1 (stereo not drawn) [Example 128]
Result: 168

Ask: Look up and report Emax, with SK-N-SH human neuroblastoma cells as system, for O=C(C1CCC1)N1Cc2ccccc2N2CCN(Cc3ccccc3)CC2C1 (stereo not drawn) [Example 115]
Result: 177

Ask: Look up and report Emax, with SK-N-SH human neuroblastoma cells as system, for O=C(c1cncs1)N1Cc2ccccc2N2CCN(Cc3ccccc3)CC2C1 (stereo not drawn) [Example 89]
Result: 140

Ask: Look up and report Emax, with SK-N-SH human neuroblastoma cells as system, for COc1cccc(CN2Cc3ccccc3N3CCN(Cc4ccccc4)CC3C2)c1 (stereo not drawn) [Example 135]
Result: 154

###

# System: SK-N-SH human neuroblastoma cells
# Assay protocol: Serum Deprivation/JC-1 Mitochondrial Membrane Potential (MMP) Assay
# Type: cell-based
# Condition parameters: Homo sapiens, single dose 3 μM, JC-1 ratio normalized to peak value for 10 μM dimebolin (n=2-4), serum deprivation, read-out: JC-1 max % (@ 3 μM)
Overview of reported activation at 3 µM across a group of compounds:
Give just the number in %; leave the unit off.

Consider the reported activation at 3 µM for these compounds:
O=C(CC(F)(F)F)N1Cc2ccccc2N2CCN(Cc3ccccc3)CC2C1 (stereo not drawn)
70
O=C(c1cscn1)N1Cc2ccccc2N2CCN(Cc3ccccc3)CC2C1 (stereo not drawn)
139
Cc1noc(C)c1C(=O)N1Cc2ccccc2N2CCN(Cc3ccccc3)CC2C1 (stereo not drawn)
149
O=C(Cc1cccnc1)N1Cc2ccccc2N2CCN(Cc3ccccc3)CC2C1 (stereo not drawn)
107
CC(C)CN1Cc2ccccc2N2CCN(Cc3ccccc3)CC2C1 (stereo not drawn)
38

Ask: Look up and report activation at 3 µM, with SK-N-SH human neuroblastoma cells as system, for O=C(Nc1nccs1)N1Cc2ccccc2N2CCN(Cc3ccccc3)CC2C1 (stereo not drawn)
Result: 64

Ask: Look up and report activation at 3 µM, with SK-N-SH human neuroblastoma cells as system, for O=C(NCCc1cccnc1)N1Cc2ccccc2N2CCN(Cc3ccccc3)CC2C1 (stereo not drawn)
Result: 212

###

# System: SK-N-SH human neuroblastoma cells
# Assay protocol: Serum Deprivation/JC-1 Mitochondrial Membrane Potential (MMP) Assay
# Assay type: cell-based
# Condition parameters: Homo sapiens, single dose 3 μM, JC-1 ratio normalized to peak value for 10 μM dimebolin (n=2-4), serum deprivation, read-out: JC-1 max % (@ 3 μM)
# activation at 3 µM >= 80% gives TRUE, anything below gives FALSE

Use these answered entries as a reference point.
CC(C)CNC(=O)N1Cc2ccccc2N2CCN(Cc3ccccc3)CC2C1 (stereo not drawn) [Example 162]
TRUE
CN(C)CCCNC(=O)N1Cc2ccccc2N2CCN(Cc3ccccc3)CC2C1 (stereo not drawn) [Example 164]
TRUE
O=C(NCc1cccnc1)N1Cc2ccccc2N2CCN(Cc3ccccc3)CC2C1 (stereo not drawn) [Example 163]
TRUE

# next compound below
Ask: Can CN1CCN2c3ccccc3CN(C(=O)c3ccccc3Cl)CC2C1 (stereo not drawn) [Example 174] be said to have activation at 3 µM at or above 80%?
Result: FALSE

###

Overview of reported pEC50 across a group of compounds:
# Test system: SK-N-SH human neuroblastoma cells
# Assay protocol: Serum Deprivation/JC-1 Mitochondrial Membrane Potential (MMP) Assay
# Assay type: cell-based
# Condition parameters: Homo sapiens, SK-N-SH, 18 h, serum deprivation ~18 hours, JC-1 ratio normalized to peak value for 10 μM dimebolin, single curve fit to mean data of n=2-3
As a rule, pEC50 stands for the negative log10 of the concentration, concentration in M.

O=C(N1CCOCC1)N1Cc2ccccc2N2CCN(S(=O)(=O)c3ccccc3)CC2C1 (stereo not shown)
5.00

Ask: Check the records and state pEC50 for CN1CCN2c3ccccc3N(Cc3ccc(Br)cc3)CCC2C1 (stereo not shown)
Result: 5.53

Ask: Check the records and state pEC50 for O=C([C@@H]1C[C@H]1c1ccccc1)N1Cc2ccccc2N2CCN(Cc3ccccc3)CC2C1 (relative stereo)
Result: 5.66

Ask: Check the records and state pEC50 for O=C(c1ccc(Br)cc1)N1Cc2ccccc2N2CCN(Cc3ccccc3)CC2C1 (stereo not shown)
Result: 5.71

Ask: Check the records and state pEC50 for Cc1ccc(CN2Cc3ccccc3N3CCN(Cc4ccccc4)CC3C2)s1 (stereo not shown)
Result: 5.47

Ask: Check the records and state pEC50 for Fc1cc(CN2Cc3ccccc3N3CCN(Cc4ccccc4)CC3C2)ccc1Br (stereo not shown)
Result: 5.24

Ask: Check the records and state pEC50 for Brc1ccc(CN2Cc3ccccc3N3CCNCC3C2)cc1 (stereo not shown)
Result: 5.11

Ask: Check the records and state pEC50 for Cc1ccc(CN2Cc3ccccc3N3CCN(Cc4ccccc4)CC3C2)cn1 (stereo not shown)
Result: 5.70

Ask: Check the records and state pEC50 for c1ccc(CN2CCN3c4ccccc4N(Cc4ccccc4)CCC3C2)cc1 (stereo not shown)
Result: 5.23

Ask: Check the records and state pEC50 for O=C(N1Cc2ccccc2N2CCN(Cc3ccccc3)CC2C1)C1(c2ccccc2)CC1 (stereo not shown)
Result: 5.38

Ask: Check the records and state pEC50 for Cc1cccc(CN2Cc3ccccc3N3CCN(Cc4ccccc4)CC3C2)c1 (stereo not shown)
Result: 5.50

Ask: Check the records and state pEC50 for O=C(/C=C/c1ccccc1)N1Cc2ccccc2N2CCN(Cc3ccccc3)CC2C1 (stereo not shown)
Result: 5.26

Ask: Check the records and state pEC50 for c1ccc(CN2CCN3c4ccccc4CN(Cc4cncc5ccccc45)CC3C2)cc1 (stereo not shown)
Result: 5.92

Attribution: patent US9133206B2
